FYI, the data here is from patent US5068325A.

- targetUnderTest: alpha-2 receptors (Rattus norvegicus)
- Sequence (P22909 1-465): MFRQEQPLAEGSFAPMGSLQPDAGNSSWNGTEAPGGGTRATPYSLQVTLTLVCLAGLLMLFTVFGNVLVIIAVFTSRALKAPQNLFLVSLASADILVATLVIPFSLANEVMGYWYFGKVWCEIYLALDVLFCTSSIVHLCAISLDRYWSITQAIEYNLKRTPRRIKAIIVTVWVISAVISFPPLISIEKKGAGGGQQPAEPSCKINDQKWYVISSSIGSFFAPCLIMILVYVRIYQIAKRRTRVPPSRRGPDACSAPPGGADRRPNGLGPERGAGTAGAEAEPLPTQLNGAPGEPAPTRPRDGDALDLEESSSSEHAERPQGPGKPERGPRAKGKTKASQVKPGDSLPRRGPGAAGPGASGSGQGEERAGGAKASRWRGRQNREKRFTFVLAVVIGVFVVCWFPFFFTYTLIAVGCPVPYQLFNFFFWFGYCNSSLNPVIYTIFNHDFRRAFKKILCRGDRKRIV
property: IC50 (nM)
Form entry: value (nM) — number only.

COc1ccc(OC)c(C=CCN2CCc3nc(N)sc3CC2)c1 : 89

Q: Query IC50 for `CC(C)COc1ccc(C=CCN2CCc3nc(N)sc3CC2)cc1`
A: 2000

Q: Please report the measured IC50 for `Nc1nc2c(s1)CCN(CC=Cc1ccc(OCc3ccccc3)cc1)CC2`
A: 3800

* * *

- targetUnderTest: dopamine D2-receptors (Rattus norvegicus)
- Sequence (P61169 whole entry): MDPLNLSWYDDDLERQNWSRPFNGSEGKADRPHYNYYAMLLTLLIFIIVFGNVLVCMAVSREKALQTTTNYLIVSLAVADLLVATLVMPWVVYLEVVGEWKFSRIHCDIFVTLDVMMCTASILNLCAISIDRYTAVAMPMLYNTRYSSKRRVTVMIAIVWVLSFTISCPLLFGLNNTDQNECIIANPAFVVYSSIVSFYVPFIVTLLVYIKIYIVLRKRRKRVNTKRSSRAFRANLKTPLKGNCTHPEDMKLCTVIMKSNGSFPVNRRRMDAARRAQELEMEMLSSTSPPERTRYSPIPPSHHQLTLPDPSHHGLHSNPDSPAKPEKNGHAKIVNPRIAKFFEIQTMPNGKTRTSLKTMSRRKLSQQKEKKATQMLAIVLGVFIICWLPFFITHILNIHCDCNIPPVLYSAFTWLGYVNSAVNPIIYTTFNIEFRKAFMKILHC
- protocolText: affinity for dopamine D2-receptors by displacement experiments with [3H]-spiperone (rat striatum membranes)
- measurementContext: [3H]-spiperone; high-affinity form of the dopamine receptor
property: Ki (nM)
Write the value in nM as a bare number.

COc1ccc(OC)c(C=CCN2CCc3nc(N)sc3CC2)c1 : 0.89
Nc1nc2c(s1)CCN(CCc1ccccc1)CC2 [Compound C, reference compound] : 410
Nc1nc2c(s1)CCN(CC=Cc1ccccc1-c1ccccc1)CC2 : 8

Q: # return Ki for `Nc1nc2c(s1)CCN(CC=Cc1ccc([N+](=O)[O-])cc1)CC2` , test system: dopamine D2-receptors (Rattus norvegicus)
A: 13

Q: Specify Ki for Nc1nc2c(s1)CCN(Cc1ccc(Cl)cc1)CC2 [Compound B, reference compound] , system dopamine D2-receptors (Rattus norvegicus).
A: 13

Q: For dopamine D2-receptors (Rattus norvegicus), give Ki of the listed compound: Nc1nc2c(s1)CCN(C/C=C\c1ccccc1)CC2 [Example 12b]
A: 4.4

* * *

- targetUnderTest: serotonin-2(5-HT2)-receptors (Rattus norvegicus, UniProt P14842)
- Construct: The frontal cortex was dissected out and placed in ice cold 0.32 M saccharose solution
- Sequence (P14842 whole entry): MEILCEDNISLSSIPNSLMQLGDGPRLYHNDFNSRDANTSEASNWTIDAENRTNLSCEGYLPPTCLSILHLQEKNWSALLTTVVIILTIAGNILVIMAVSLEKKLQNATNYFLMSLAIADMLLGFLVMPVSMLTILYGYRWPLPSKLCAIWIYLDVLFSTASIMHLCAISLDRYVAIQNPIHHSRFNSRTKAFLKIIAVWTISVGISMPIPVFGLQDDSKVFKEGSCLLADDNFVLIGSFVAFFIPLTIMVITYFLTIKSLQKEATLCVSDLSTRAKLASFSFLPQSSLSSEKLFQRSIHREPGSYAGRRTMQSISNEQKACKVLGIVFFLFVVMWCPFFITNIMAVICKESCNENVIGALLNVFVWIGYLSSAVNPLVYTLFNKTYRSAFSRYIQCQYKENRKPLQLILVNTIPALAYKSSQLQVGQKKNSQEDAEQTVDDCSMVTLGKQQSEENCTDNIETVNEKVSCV
- protocolText: affinity for serotonin-2 (5-HT2) receptors by displacement experiments with [3H]-spiperone (rat frontal cortex)
property: Ki (nM)
Please give a number only; it is taken to be in nM.

Worked cases, answers included:
Nc1nc2c(s1)CCN(CC=Cc1nccc3ccccc13)CC2 [Example 7a] : 120
C=CCN1CCc2nc(N)sc2CC1 [Compound A, reference compound] : 20200
Nc1nc2c(s1)CCN(CC=Cc1ccccc1N1CCCCC1)CC2 [Example 11p] : 558

Q: Give a short answer stating reported Ki for N#Cc1ccc(C=CCN2CCc3nc(N)sc3CC2)cc1 [Example 14b] .
A: 15000

Q: Give the reported Ki for this molecule. Nc1nc2c(s1)CCN(CC1CC1c1ccccc1)CC2 (stereo not drawn) [Example 17]
A: 339

Q: Using known records, supply Ki for Nc1nc2c(s1)CCN(CC#Cc1ccccc1)CC2 [Example 4d]
A: 1800
